Tested Target: Melanocortin receptor 4 (Homo sapiens) (UniProt P32245)
Sequence (P32245 whole entry, looked up): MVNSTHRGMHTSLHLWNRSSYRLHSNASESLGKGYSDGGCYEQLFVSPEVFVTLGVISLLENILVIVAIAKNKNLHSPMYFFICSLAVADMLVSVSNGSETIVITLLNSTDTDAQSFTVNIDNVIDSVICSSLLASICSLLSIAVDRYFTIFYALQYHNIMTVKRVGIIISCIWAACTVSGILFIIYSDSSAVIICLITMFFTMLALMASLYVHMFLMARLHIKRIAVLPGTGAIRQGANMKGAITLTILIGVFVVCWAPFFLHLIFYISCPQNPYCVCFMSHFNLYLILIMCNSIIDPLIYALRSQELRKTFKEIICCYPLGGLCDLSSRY
Test Name: activators of MC4R beta-arrestin recruitment – cell-based, luminescence, agonist arm of biased-ligand search, primary screen (AID 540308)
Test Parameters: U2OS MC4R beta-arrestin complementation, at 8.9 µM, active compounds read high, percent of melanotan II response, DMSO zero
Screen size: about 360,000 compounds; about 3,500 (0.97%) were called active. This is one part of a sample in which actives are shown more often than they occur.
Value Kind: activation (%)
State the answer as a number, implicitly in %.

The examples below pair each entry with its known result.
{"Compound": "COc1cc(/C=C/C(=O)OCC(=O)c2ccccc2)cc(OC)c1OC", "Quantity Unit": "%", "activation": -2.53}
{"Compound": "Cc1ccc(-c2csc(NC(=O)Cn3[nH]c(=O)c4ccccc4c3=O)n2)cc1", "Quantity Unit": "%", "activation": 16.1}
{"Compound": "CCOc1ccc(/C=C/C(=O)OCC(=O)c2ccccc2OC)cc1OC", "Quantity Unit": "%", "activation": 12.9}
{"Compound": "CCC(=O)c1ccc(OCC(=O)Nc2ccc(N3CCCCC3)cc2)cc1", "Quantity Unit": "%", "activation": 3.06}
{"Compound": "Cc1nc(C(F)(F)F)ccc1C(=O)N1CCC1(C)C(=O)NS(=O)(=O)c1ccccc1Cl (centres undefined)", "Quantity Unit": "%", "activation": -1.94}

// returns activation for O=C(COC(=O)c1cccc(Br)c1)Nc1cccc2c1C(=O)c1ccccc1C2=O with Melanocortin receptor 4 (Homo sapiens) (UniProt P32245); value = 22.1

Reported activation (Melanocortin receptor 4 (Homo sapiens) (UniProt P32245)) for entry CCOC(=O)c1c(NC(=O)C2CCN(S(=O)(=O)c3ccc(Cl)cc3)CC2)sc2c1CCCC2 is 2.72

The compound OC[C@H]1O[C@@H](c2nc(-c3nc(-c4ccc(F)cc4)no3)cs2)[C@H](O)[C@@H](O)[C@H]1O , when measured on Melanocortin receptor 4 (Homo sapiens) (UniProt P32245), yielded activation of -1.58

----------
Tested Target: Melanocortin receptor 4 (Homo sapiens)
Test Name: activators of MC4R beta-arrestin recruitment – cell-based, luminescence, agonist arm of biased-ligand search, primary screen (AID 540308)
Test Parameters: U2OS MC4R beta-arrestin complementation, at 8.9 µM, active compounds read high, percent of melanotan II response, DMSO zero
Screen size: about 360,000 compounds; about 3,500 (0.97%) were called active. This is one part of a sample in which actives are shown more often than they occur.
Value Kind: activation (%)
Give just the numeric value; % need not be written.

Note to self: activation recorded for Cc1ccc(C)c(C(=O)COC(=O)Cn2[nH]c(=O)c3ccccc3c2=O)c1 was -1.85

activation reported for this molecule COC(=O)Cn1nc(-c2ccccc2)c2cc(Cl)ccc21 : -2.4

Item: COc1ccc(/C=C/C(=O)OCC(=O)NC2CCCCCC2)cc1OC | activation: 0.56

The reported activation of the molecule CCCNC(=O)C1(C)CCN(C(=O)c2ccc(F)cc2Cl)C1 (stereo unspecified) was 0.56

Sample COc1ccc(OCC(=O)Nc2ccc(N3CCC(C)CC3)cc2)cc1 ; activation observed: 10.2

// sample O=C(Nc1sc2c(c1-c1nc3ccccc3[nH]1)CCCC2)C1CC1 , its activation was 14.1
